test: clinical; conditions: female, human, in vivo, 150 mg
Measure: Tmax (h)

INSERT INTO assay_data (molecule, val) VALUES
  ('CC(NC(C)(C)C)C(=O)c1cccc(Cl)c1 (stereo not shown)', 3.5);

* * *

molecular target: CYP3A4 (Homo sapiens, UniProt P08684); experiment: biochemical; settings: read-out: IC50, Omeprazole sulfoxidation; human liver microsomes, probe 2 μM
Sequence (P08684 whole entry): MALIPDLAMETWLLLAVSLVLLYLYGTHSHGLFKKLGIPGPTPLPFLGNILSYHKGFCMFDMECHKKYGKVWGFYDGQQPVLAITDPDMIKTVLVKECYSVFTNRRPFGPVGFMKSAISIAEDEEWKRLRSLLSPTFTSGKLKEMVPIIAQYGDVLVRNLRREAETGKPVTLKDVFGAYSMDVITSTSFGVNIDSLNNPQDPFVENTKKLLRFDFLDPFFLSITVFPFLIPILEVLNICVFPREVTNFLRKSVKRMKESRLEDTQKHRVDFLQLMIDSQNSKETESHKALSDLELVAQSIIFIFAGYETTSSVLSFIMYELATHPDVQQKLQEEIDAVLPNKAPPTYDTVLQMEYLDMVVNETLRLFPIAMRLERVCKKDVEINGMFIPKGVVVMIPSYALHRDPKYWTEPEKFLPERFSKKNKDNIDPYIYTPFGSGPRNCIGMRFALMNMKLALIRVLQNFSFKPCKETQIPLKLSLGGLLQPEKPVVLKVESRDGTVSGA
Measure: IC50 (µM)

INSERT INTO measurements (compound, measure, val) VALUES
  ('OCCOc1ccc(/C(=C(/CCCl)c2ccccc2)c2ccc(O)cc2)cc1 [4-Hydroxy-ospemifene, 4-hydroxyospemifene]', 'IC50', 35.9);

* * *

target: CYP2D6 (Homo sapiens, UniProt P10635); assay: N-in-one CYP inhibition assay in human liver microsomes; type of inhibition; details: read-out: IC50, Dextromethorphan O-demethylation; human liver microsomes, probe 0.2 μM
Sequence (P10635 whole entry): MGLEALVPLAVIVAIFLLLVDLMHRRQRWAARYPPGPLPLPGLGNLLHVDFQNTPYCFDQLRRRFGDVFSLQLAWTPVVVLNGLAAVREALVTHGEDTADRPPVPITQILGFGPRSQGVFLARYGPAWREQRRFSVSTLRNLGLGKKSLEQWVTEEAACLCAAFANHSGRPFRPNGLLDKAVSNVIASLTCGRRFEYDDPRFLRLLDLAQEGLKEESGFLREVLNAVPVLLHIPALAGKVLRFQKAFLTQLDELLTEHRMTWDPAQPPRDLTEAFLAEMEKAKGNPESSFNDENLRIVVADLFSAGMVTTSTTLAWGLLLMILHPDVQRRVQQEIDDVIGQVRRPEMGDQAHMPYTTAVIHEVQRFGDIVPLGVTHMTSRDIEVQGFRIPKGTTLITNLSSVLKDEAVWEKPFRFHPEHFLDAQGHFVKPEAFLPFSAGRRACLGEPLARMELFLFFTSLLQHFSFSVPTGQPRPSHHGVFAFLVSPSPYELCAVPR
Measure: IC50 (µM)

INSERT INTO results (molecule, measure, val) VALUES
  ('OCCOc1ccc(/C(=C(/CCCl)c2ccccc2)c2ccc(O)cc2)cc1 [4-Hydroxy-ospemifene, 4-hydroxyospemifene]', 'IC50', 25.5);
